# system: β1,3-N-acetylglucosaminyl transferase (G4) (Homo sapiens, UniProt Q9Y2A9, R328H)
# Construct: made in house; host or cells: Sf21 insect cells infected with recombinant baculovirus from pVL1393-F2G4
# Sequence (Q9Y2A9 38-372 R328H): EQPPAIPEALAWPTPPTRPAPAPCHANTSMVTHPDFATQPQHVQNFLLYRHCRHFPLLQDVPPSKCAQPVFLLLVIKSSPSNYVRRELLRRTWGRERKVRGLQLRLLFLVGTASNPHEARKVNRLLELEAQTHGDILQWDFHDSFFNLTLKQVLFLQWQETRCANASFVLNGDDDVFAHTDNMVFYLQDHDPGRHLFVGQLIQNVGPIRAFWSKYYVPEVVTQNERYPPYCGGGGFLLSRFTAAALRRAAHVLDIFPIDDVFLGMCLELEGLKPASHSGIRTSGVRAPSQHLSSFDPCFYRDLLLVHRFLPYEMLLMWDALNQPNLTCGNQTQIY
# assay name: Substrate specificity of G4 with pyridylaminated oligosaccharides
# Format: biochemical
# experimental conditions: pyridylaminated substrate 50 μmol/l, 37° C., 14.5 hours, activity on LNnT defined as 100%
# Experimental: Examination on the substrate specificity of a β1,3-N-acetylglucosaminyl transferase (G4) was carried out by using the FLAG peptide-fused G4 polypeptide produced as a secreted form in Example 10. The method shown in Example 8 was used as the activity measuring method. […] Fluorescence labeling of these substrates were carried out in accordance with the usual method [Agric. […]
Each entry below lists one item and its recorded Relative activity (%) value.
Kindly answer with a numeric value in %, unit omitted.

Study these solved cases before continuing.
*Q* What Relative activity (%) appears in the records for this molecule with β1,3-N-acetylglucosaminyl transferase (G4) (Homo sapiens, UniProt Q9Y2A9, R328H)? CC(=O)N[C@H]1[C@H](O[C@H]2[C@@H](O)[C@@H](CO)O[C@@H](O[C@@H]([C@H](O)[C@@H](O)C=O)[C@H](O)CO)[C@@H]2O)O[C@H](CO)[C@@H](O[C@@H]2O[C@@H](C)[C@@H](O)[C@@H](O)[C@@H]2O)[C@@H]1O[C@@H]1O[C@H](CO)[C@H](O)[C@H](O)[C@H]1O [LNFP-II, lacto-N-fucopentaose II]
*A* 0

*Q* Notebook entry, β1,3-N-acetylglucosaminyl transferase (G4) (Homo sapiens, UniProt Q9Y2A9, R328H) assay: Relative activity (%) of CC(=O)N[C@H]1[C@H](O[C@H]2[C@@H](O)[C@@H](CO)O[C@@H](O[C@@H]([C@H](O[C@@H]3O[C@@H](C)[C@@H](O)[C@@H](O)[C@@H]3O)[C@@H](O)C=O)[C@H](O)CO)[C@@H]2O)O[C@H](CO)[C@@H](O[C@@H]2O[C@@H](C)[C@@H](O)[C@@H](O)[C@@H]2O)[C@@H]1O[C@@H]1O[C@H](CO)[C@H](O)[C@H](O)[C@H]1O [LNDFH-II, lacto-N-difucohexaose II] = ?
*A* 0

*Q* Please provide the recorded Relative activity (%) for CC(=O)N[C@H]1[C@H](O[C@H]2[C@@H](O)[C@@H](CO)O[C@@H](O[C@H]3[C@H](O)[C@@H](O)C(O)O[C@@H]3CO)[C@@H]2O)O[C@H](CO)[C@@H](O[C@@H]2O[C@H](CO)[C@H](O)[C@H](O)[C@H]2O)[C@@H]1O (mixture of isomers) [LNnT, lacto-N-neotetraose] , tested on β1,3-N-acetylglucosaminyl transferase (G4) (Homo sapiens, UniProt Q9Y2A9, R328H).
*A* 100

***
*Q* Param readout= Relative activity (%); system= β1,3-N-acetylglucosaminyl transferase (G4) (Homo sapiens, UniProt Q9Y2A9, R328H); entry= CC(=O)N[C@H]1[C@H](O[C@H]2[C@@H](O)[C@@H](CO)O[C@@H](O[C@H]3[C@H](O)[C@@H](O)C(O)O[C@@H]3CO)[C@@H]2O)O[C@H](CO)[C@@H](O)[C@@H]1O[C@@H]1O[C@H](CO)[C@H](O)[C@H](O)[C@H]1O (stereo partly shown) [LNT, lacto-N-tetraose] ; returns value.
*A* 84.5
